// data source = patent US4288449A

Here the recorded LD50 at 72 h is given for each entry.
assay_protocol: in vivo
applied_conditions: mouse, po
Please reply with the bare figure in mg/kg and do not write the unit itself.

O=C(O)c1cc(NCc2ccccc2)c(Oc2ccccc2)c(S(=O)(=O)n2cccc2)c1: 957

Next item in the queue.
For this compound ( `O=C(O)c1cc(NCc2ccsc2)c(Oc2ccccc2)c(S(=O)(=O)n2cccc2)c1` ), measured LD50 at 72 h is 1470

* * *

assay_protocol: Diuretic action after oral administration (excretion of electrolyte and of water)
Assay type: in vivo, dog (male beagles)
applied_conditions: dog; 6 hours; oral; doses as E6; control 184
Exam item: assign Fulfilled to entries whose Excretion of electrolyte: K^+ is below 500 μval/kg and Not fulfilled to entries at or above 500 μval/kg. Note that a value of exactly 500 μval/kg receives Not fulfilled.

Example results:
CCc1ccc(C)n1S(=O)(=O)c1cc(C(=O)O)cc(NCc2ccsc2)c1Oc1ccccc1 [Example 116]: Fulfilled
Cc1ccc(C)n1S(=O)(=O)c1cc(C(=O)O)cc(NCc2ccsc2)c1Nc1ccccc1 [Example 120]: Not fulfilled
O=C(O)c1cc(NCc2ccccc2)c(Oc2ccccc2)c(S(=O)(=O)n2cccc2)c1 [Example 9]: Not fulfilled
O=C(O)c1cc(NCc2ccsc2)c(Oc2ccccc2)c(S(=O)(=O)n2cccc2)c1 [Example 15]: Not fulfilled

q: Would you kindly verify if Excretion of electrolyte: K^+ of CCc1ccc(CC)n1S(=O)(=O)c1cc(C(=O)O)cc(NCc2ccsc2)c1Oc1ccccc1 [Example 114] is strictly less than 500 μval/kg?
a: Fulfilled
